Target: catalytic domain (JH1, amino acids 808-1132) of human JAK2 (Homo sapiens, UniProt O60674)
Construct: catalytic domain (JH1, amino acids 808-1132) of human JAK2; His (N)
Sequence (O60674 808-1132): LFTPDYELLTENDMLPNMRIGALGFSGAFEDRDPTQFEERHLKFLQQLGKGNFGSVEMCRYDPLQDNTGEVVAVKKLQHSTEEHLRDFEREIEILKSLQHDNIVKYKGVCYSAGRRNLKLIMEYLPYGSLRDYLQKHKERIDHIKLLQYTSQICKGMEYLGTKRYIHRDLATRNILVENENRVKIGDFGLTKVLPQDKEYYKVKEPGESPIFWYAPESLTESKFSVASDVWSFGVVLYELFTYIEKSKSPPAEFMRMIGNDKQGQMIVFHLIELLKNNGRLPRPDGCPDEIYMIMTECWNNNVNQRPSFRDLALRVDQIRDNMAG
Test: JAK2 HTRF Enzyme Activity Assay
Conditions: ATP 30 μM, read-out: ENZ 30UMATP
Counter-ions that a name gives are not always drawn.
VALUE_TYPE: IC50

Record excerpt, results attached:
O=C(O)C(F)(F)F.[2H]C([2H])([2H])n1ncc2cc(-c3c(-c4cnn(CC(C)(C)OC)c4)[nH]c4ncc5c(c34)C3(CC4(CN(S(=O)(=O)CC)C4)C3)C(=O)N5C)ccc21 = > 2500 nM
CN1C(=O)C2(CCN(C(C)(C)C3CNC3)CC2)c2c1cnc1[nH]c(-c3cnn(C)c3)c(-c3ccc4c(cnn4C)c3)c21 = 100 to 500 nM
CN1C(=O)C2(CCN(CC3(CC#N)CC3)C2)c2c1cnc1[nH]c(-c3ccc4c(c3)OCC(=O)N4)c(-c3ccc4c(cnn4C)c3)c21 (racemic) [Example 67, trifluoroacetate salt] = > 2500 nM
CN1C(=O)C2(CCN(C(C)(C)c3c[nH]nn3)CC2)c2c1cnc1[nH]c(-c3cnn(C)c3)c(-c3ccc4c(cnn4C)c3)c21 = 100 to 500 nM
CN1C(=O)C2(CCN(C3(CC#N)CCC3)CC2)c2c1cnc1[nH]c(-c3cnn(CC(F)(F)F)c3)c(-c3ccc4c(cnn4C)c3)c21 [Example 33, trifluoroacetate salt] = 500 to 1250 nM

Prompt: I'd like to know its IC50. The compound in question is [2H]C([2H])([2H])n1ncc2cc(-c3c(-c4cnn5c4CCC5)[nH]c4ncc5c(c34)C3(CCN(C4(CC#N)CCCC4)CC3)C(=O)N5C)ccc21
Completion: 1250 to 2500 nM
